Details: in isopropanol, 303.15 K
Metric: solubility (mole fraction)

Entry `CC1(C)[C@@H](O)CC[C@]2(C)[C@H]3C(=O)C=C4[C@@H]5C[C@@](C)(C(=O)O)CC[C@]5(C)CC[C@@]4(C)[C@]3(C)CC[C@@H]12` — recorded solubility (mole fraction) = 0.0133

* * *

Details: in DMF, 278.15 K
Metric: solubility (mole fraction)
// print number alone

Entry `CC1(C)[C@@H](O)CC[C@]2(C)[C@H]3C(=O)C=C4[C@@H]5C[C@@](C)(C(=O)O)CC[C@]5(C)CC[C@@]4(C)[C@]3(C)CC[C@@H]12` — recorded solubility (mole fraction) = 0.0449
